# Lookup of reported 100 nM Ag Bound (RU) keyed by entry
Biological target: T1, Macaca fascicularis IL2Rγ extracellular domain expressed with a C-terminal myc-myc-hexahistidine tag (Macaca fascicularis)
T1 construct: also called mfIL-2Rg-MMH; mfIL-2RG-MMH
T1 chain: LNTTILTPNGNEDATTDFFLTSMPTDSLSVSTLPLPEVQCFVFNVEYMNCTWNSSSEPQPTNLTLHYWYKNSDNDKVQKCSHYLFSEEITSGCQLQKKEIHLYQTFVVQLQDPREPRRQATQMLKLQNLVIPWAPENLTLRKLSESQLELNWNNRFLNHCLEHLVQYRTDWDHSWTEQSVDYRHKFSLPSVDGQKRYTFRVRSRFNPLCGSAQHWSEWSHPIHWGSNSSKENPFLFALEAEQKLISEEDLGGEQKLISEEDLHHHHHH
Assay: SPR, captured mAb, 25C, dissociation pH 7.4

{"Binder": "H4H12871P (antibody, human IgG4 S228P, kappa, V domains shown, anti-IL2Rgamma mAb expressed with human IgG4 Fc; also called REGN9434) VH: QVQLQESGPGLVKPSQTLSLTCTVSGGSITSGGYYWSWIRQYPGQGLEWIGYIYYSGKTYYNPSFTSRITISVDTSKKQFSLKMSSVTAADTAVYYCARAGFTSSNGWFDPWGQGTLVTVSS VL: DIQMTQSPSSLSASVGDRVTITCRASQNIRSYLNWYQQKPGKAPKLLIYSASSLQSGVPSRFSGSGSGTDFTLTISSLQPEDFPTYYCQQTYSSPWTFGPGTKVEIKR", "Unit Tag": "RU", "100 nM Ag Bound (RU)": 125}
{"Binder": "H4H12863P (antibody, human IgG4 S228P, kappa, V domains shown, anti-IL2Rgamma mAb expressed with human IgG4 Fc) VH: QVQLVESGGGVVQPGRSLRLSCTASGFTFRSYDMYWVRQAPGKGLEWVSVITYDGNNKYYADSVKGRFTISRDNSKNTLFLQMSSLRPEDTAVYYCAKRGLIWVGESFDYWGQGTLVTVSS VL: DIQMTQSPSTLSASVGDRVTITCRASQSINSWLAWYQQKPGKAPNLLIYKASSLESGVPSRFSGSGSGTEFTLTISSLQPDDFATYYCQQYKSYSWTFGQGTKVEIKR", "Unit Tag": "RU", "100 nM Ag Bound (RU)": 155}

Ref: patent US20200247894A1
